# credit: PubChem BioAssay (NCI)

System: HOP-62 NSCLC
Assay: NCI-60 one-dose screen, 48 h
Conditions: 10 µM unless noted
The panel holds about 83,000 compounds, 20% with a hit somewhere; the sample as a whole holds those more often. Active and inactive are the calls of the source. The calls were made as follows: active = growth percent below 10; inactive = the rest.
Labels: YES (active), NO (inactive)

compound: CC1=C2[C@@H](CC1)[C@]1(C)O[C@@](C(C)C)(C[C@H]1OC(=O)[C@H](C)O)[C@H]2OC(=O)/C=C/c1ccccc1
assigned-class: NO
--
compound: CCNCCNc1cc(C2CCCCC2)c(C#N)c2nc3ccccc3n12
assigned-class: NO
--
compound: Cc1cc(=O)n(C(=O)Nc2ccccc2Cl)c2cc(O)ccc12
assigned-class: NO
--
compound: CC(=O)O[C@H]1CC2CCC3C(CC[C@@]4(C)C3C[C@H]([N+]3(C)CCCCC3)[C@@H]4OC(C)=O)[C@@]2(C)C[C@@H]1N1CCCCC1 (stereo partly drawn)
assigned-class: NO
--
compound: Cc1ccc(CNc2ccc3nc(CCC4CCCCC4)[nH]c3c2)cc1
assigned-class: NO
--
compound: CC(C)=CCC[C@](C)(O)[C@H]1CC[C@]2(C)[C@@H]1CC[C@@H]1[C@@]3(C)C/C(=C/c4ccco4)C(=O)C(C)(C)[C@@H]3CC[C@]12C
assigned-class: NO
--
compound: Cc1ccc(C(=O)c2ccc(CC(=O)N/N=C/c3ccccc3O)n2C)cc1
assigned-class: NO
--
compound: Cc1c(-c2ccc(O)cc2)n(Cc2ccc(OCCN3CCCCCC3)cc2)c2ccc(O)cc12
assigned-class: NO
--
compound: N=C(N)c1ccc(-c2ccc(-c3ccccc3)o2)cc1
assigned-class: YES
--
compound: NC(N)=NCCCCCNc1noc(Cc2c[nH]c3cc(Br)ccc23)n1
assigned-class: NO
--
compound: CCOC(=O)C#Cc1c(C(=O)OCC)nnn1Cc1ccc([N+](=O)[O-])cc1
assigned-class: NO
--
compound: C#CCNC(=O)[C@H](CC)[C@H]1CC[C@H](C)[C@H]([C@@H](C)[C@H](O)[C@H](C)C(=O)[C@H](CC)C2O[C@]3(C=CC(=O)[C@]4(CC[C@@](C)([C@H]5CC[C@](O)(CC)[C@H](C)O5)O4)O3)[C@H](C)C[C@@H]2C)O1 (stereo partly drawn)
assigned-class: NO
--
compound: CCN1C(=O)N(CC)C2C1NN=c1s/c(=C\c3ccccc3F)c(=O)n12 (stereo not drawn)
assigned-class: NO
--
compound: c1cnc2c(-c3nc4ccc5[nH]ncc5c4c4c3CCCC4)c[nH]c2c1
assigned-class: NO
--
compound: COc1cc(-c2csc(NC(=O)c3ccc(N4CCOCC4)c(C(F)(F)F)c3)n2)cc(OC)c1OC
assigned-class: NO
--
compound: Nc1c(C(=O)Nc2ccccc2F)sc2nc3c(cc12)CCCC3
assigned-class: NO
--
compound: Cc1ccc(-c2nc(N3CCCNCC3)c3oc(-c4ccc(C)cc4)nc3n2)cc1
assigned-class: NO
--
compound: CN(C)S(=O)(=O)c1cccc(C(=O)Nc2nc(-c3ccc(F)c(F)c3)cs2)c1
assigned-class: NO

---

# growth listing for each entry below
Tested on: MDA-MB-231 breast
Experiment: NCI-60 one-dose screen, 48 h (100 = growth as untreated, 0 = no growth, -100 = all killed)
Details: 10 µM unless noted
Compounds without any hit were thinned out: in the full panel of roughly 83,000, 20% have a hit. Calls of active or inactive are those of the source. The calls were made as follows: active = growth percent below 10; inactive = the rest.

compound: COC12C=C/C(=C(/C(=O)OCc3ccncn3)C(=O)CCCCCCCCC3(OC)C=C/C(=C(/C(=O)OCc4ccncn4)C(=O)CCCCCCCC1)O3)O2
growth: 10.6% (inactive)
//
compound: COC1=CC(c2ccc[nH]2)=N/C1=C\c1[nH]c(C)c(CC(=O)NCc2ccccc2)c1C
growth: 0.672% (active)
//
compound: COc1cc(OC)c(/C=C/C(=O)c2c(OC)cccc2OC)c(OC)c1
growth: 15% (inactive)
//
compound: COc1ccc(-c2cc(-c3cc(OC)c(OC)c(OC)c3)c(C#N)c(=O)n2CCCCC(=O)NO)cc1
growth: 55.6% (inactive)
//
compound: Fc1cccc(Oc2ccc(Nc3ncnc4ccc(OCCCN5CCOCC5)cc34)cc2Cl)c1
growth: 61.4% (inactive)
//
compound: COC(=O)CC[C@H](C)[C@H]1CC[C@H]2[C@@H]3CC[C@@H]4CC5(CC[C@]4(C)[C@H]3CC(=O)[C@]12C)Nc1ccccc1NC5=NC(C)(C)C (stereo not given in full)
growth: 86.7% (inactive)
//
compound: O=C(CSc1nc2ccc([N+](=O)[O-])cc2[nH]1)Nc1ccc([N+](=O)[O-])cc1
growth: 33.3% (inactive)
//
compound: O=C1C(=O)N(Cc2ccc(-c3ccccc3)cc2)c2ccc(OC(F)(F)F)cc21
growth: 44.9% (inactive)
//
compound: COc1ccc(OC)c(Nc2nnc(-c3ccc(O)c(OC)c3)o2)c1
growth: 69.4% (inactive)
//
compound: CC1(C)COB(OCC(C)(C)COB2OCC(C)(C)CO2)OC1
growth: 112% (inactive)
//
compound: NC(=O)C(=O)c1ccccc1NC=O
growth: 97.7% (inactive)
//
compound: CN1CCN(c2cc(Nc3cc(C4CC4)[nH]n3)nc(Nc3ccc(CC(=O)NCc4cccc(F)c4)cc3)n2)CC1
growth: 14.4% (inactive)
//
compound: N#Cc1ccc(O)c(C2=NCC(c3ccccc3)O2)c1 (stereo not given)
growth: 46.4% (inactive)
//
compound: O=S(=O)(NCCNc1nccc(-c2c(-c3ccc(F)c(O)c3)nc3sccn23)n1)c1ccc(O)cc1
growth: 45.6% (inactive)
//
compound: COc1ccc(/C=C(\C#N)n2nnc3ccc(Cl)cc32)cc1
growth: 76.1% (inactive)
//
compound: CS(=O)(=O)Nc1cc(-c2ccc3ncnc(Nc4ccc5c(cnn5Cc5ccc(F)cc5)c4)c3c2)cnc1Cl
growth: 32.9% (inactive)
//
compound: COC(=O)/C=C1/SC(=Nc2cccc(OC)c2)N(CCc2c[nH]c3ccc(O)cc23)C1=O
growth: 66.6% (inactive)
//
compound: COC(=O)C1Cc2ccccc2CN1C(=O)c1ccc2c(c1)Cc1ccccc1-2 (stereo not given)
growth: 42.3% [50 µM] (inactive)
//
compound: N#CC(C#N)N=Nc1ccc(Br)cc1
growth: 18.5% (inactive)
//
compound: CCOC(=O)c1nn(-c2ccc(S(N)(=O)=O)cc2)c2nc(C)cc(=O)n12
growth: 102% (inactive)
//
compound: COCCNC(=O)Nc1ccc2nc(-c3cccs3)c(-c3cccs3)nc2c1
growth: 92.3% (inactive)
//
compound: CCc1ccc(CCCC(=O)O)cc1
growth: 100% (inactive)
//
compound: O=C(NNC(=O)c1ccc(NC(=O)c2ccccn2)cc1)Nc1ccc([N+](=O)[O-])cc1
growth: 103% (inactive)
//
compound: COc1ccc(-c2nc3c(ncc4ccc(=O)[nH]c43)s2)cc1
growth: 81.5% (inactive)
//
compound: Cc1ccc(CNc2ccc3nc(CCC4CCCCC4)[nH]c3c2)cc1
growth: 53.1% (inactive)
//
compound: Cc1ccc(NC(=O)Cn2cc(CN3CCN(c4ccnc5cc(Cl)ccc45)CC3)nn2)cc1
growth: 77.1% (inactive)
//
compound: CN(C)c1ccc(C(=O)OCCCCCCl)cc1
growth: 87.4% (inactive)
//
compound: CCC(C)N(CCNc1cc(OC)cc2cccnc12)CC(C)C (stereo not given)
growth: 87.8% (inactive)
//
compound: CN(C)S(=O)(=O)c1cccc(C(=O)Nc2nc(-c3ccc(F)c(F)c3)cs2)c1
growth: 69.4% (inactive)
//
compound: CCc1ccccc1-n1c(-c2ccc(OC)cc2)cc(-c2ccc(OC)cc2)c(C#N)c1=O
growth: 62% (inactive)
//
compound: Cn1cc(-c2nonc2-c2cn(C)c3ccccc23)c2ccccc21
growth: 23.2% (inactive)
//
compound: O=c1c2cnn(-c3ccccc3)c2n2c(CN3CCOCC3)nnc2n1-c1ccccc1
growth: 106% (inactive)
//
compound: Cc1ccc2c(c1)=C/C(=C\c1cc(-c3ccccc3)oc1O)C(=O)N=2
growth: 116% (inactive)
//
compound: COc1ccc(C2=C(Nc3ccc(C(=O)Nc4ccccc4)cc3)C(=O)N(C)C2=O)cc1
growth: 83.2% (inactive)
//
compound: CCOc1nc(-c2ccccc2)cc2c(O)c(C(=O)N/N=C/c3ccccc3)[nH]c(=O)c12
growth: 117% (inactive)
//
compound: COc1ccc(C(=O)c2cc3c(N)c(C(=O)Nc4ccc(C)cc4)sc3nc2C)cc1
growth: 22% (inactive)
//
compound: Oc1c(I)cc(I)cc1CNCCN(Cc1ccccn1)Cc1ccccn1
growth: -36.1% (active)
//
compound: O=C(Nn1c2c(sc1=NC1CC1)C(=O)c1ccccc1C2=O)c1cc2ccc1CCc1ccc(cc1)CC2
growth: 15.4% (inactive)
//
compound: C=C1C(=O)O[C@H]2[C@H]1CC/C(COC(=O)C(=O)c1cn(C)c3ccc(Cl)cc13)=C\CC[C@@]1(C)O[C@@H]21
growth: -68.7% (active)
//
compound: COc1ccc(C(=O)N2c3ccccc3Sc3ccccc32)c(OC)c1
growth: 38.4% (inactive)
